target: Human AMPK α2β2γ1 (Homo sapiens, UniProt O43741+P54646); construct: The full length cDNAs of human AMPK β2 (NM_005399.3) and human AMPK α2 (NM_006252.3) were inserted; the full length cDNA of human AMPK γ1 (NM_002733.3) had been inserted into pET28b(+); 6xHis (N); made in house; host or cells: Escherichia coli BL21 CodonPlus (DE3)-RIL; assay: Test Example 2: evaluation of activators of AMP-activated protein kinase (mobility-shift assay, FL-Peptide 7); type: biochemical; settings: human AMPK α2β2γ1 phosphorylated with CaMKK2; 25° C., 2 hours; 1% DMSO
Sequence (P54646 whole entry): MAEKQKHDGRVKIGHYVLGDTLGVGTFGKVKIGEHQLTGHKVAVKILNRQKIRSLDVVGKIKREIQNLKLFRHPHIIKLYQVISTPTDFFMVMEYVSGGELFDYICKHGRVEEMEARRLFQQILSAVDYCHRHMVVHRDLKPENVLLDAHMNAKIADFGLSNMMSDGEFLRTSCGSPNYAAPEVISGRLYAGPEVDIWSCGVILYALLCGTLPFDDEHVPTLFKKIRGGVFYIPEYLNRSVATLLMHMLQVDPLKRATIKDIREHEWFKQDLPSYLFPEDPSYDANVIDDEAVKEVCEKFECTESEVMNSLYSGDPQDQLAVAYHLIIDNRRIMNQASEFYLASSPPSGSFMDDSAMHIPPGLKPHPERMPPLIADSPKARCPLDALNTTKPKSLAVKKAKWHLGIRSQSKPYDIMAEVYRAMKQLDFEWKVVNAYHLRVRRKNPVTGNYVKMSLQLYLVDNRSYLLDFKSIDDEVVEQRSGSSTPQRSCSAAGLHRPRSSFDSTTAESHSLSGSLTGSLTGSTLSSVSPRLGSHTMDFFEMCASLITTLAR
Sequence (O43741 whole entry): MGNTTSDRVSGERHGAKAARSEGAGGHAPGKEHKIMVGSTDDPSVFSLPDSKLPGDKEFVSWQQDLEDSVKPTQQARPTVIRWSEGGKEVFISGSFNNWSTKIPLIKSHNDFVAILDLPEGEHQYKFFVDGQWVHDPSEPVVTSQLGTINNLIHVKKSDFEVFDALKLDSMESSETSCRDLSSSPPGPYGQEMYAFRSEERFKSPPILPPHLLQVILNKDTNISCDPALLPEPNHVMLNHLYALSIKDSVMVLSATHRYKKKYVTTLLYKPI
Sequence (P54619 whole entry partner): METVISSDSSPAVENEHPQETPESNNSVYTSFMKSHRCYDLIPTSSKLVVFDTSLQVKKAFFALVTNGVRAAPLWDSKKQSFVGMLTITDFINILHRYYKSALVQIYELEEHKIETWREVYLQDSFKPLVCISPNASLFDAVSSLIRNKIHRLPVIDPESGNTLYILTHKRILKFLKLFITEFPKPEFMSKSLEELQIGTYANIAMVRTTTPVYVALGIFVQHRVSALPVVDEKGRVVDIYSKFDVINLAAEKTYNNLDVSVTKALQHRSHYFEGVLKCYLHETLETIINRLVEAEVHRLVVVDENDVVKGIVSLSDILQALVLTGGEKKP
Provide the reported EC150 (compound concentration showing 150% relative to the control (100%)) of each item.

## Task What value of EC150 (compound concentration showing 150% relative to the control (100%)) has been reported for the following molecule? Cc1ccc(Oc2nc3nc(-c4ccc(N5CCOCC5)cc4)c(Cl)cc3[nH]2)cc1C(=O)O [A−1, reference compound]
## Result 130 nM

## Task What value of EC150 (compound concentration showing 150% relative to the control (100%)) has been reported for the following molecule? O[C@@H]1CO[C@H]2[C@@H]1OC[C@H]2Oc1cc2nc(-c3ccc(N4CCOCC4)cc3)c(Cl)cc2[nH]1
## Result 1.9 nM

## Task What value of EC150 (compound concentration showing 150% relative to the control (100%)) has been reported for the following molecule? CC(=O)NC/C=C/c1ccc(-c2cc3c(C#N)c(O[C@@H]4CO[C@H]5[C@@H]4OC[C@H]5O)[nH]c3cc2Cl)cc1
## Result 34 nM

## Task What value of EC150 (compound concentration showing 150% relative to the control (100%)) has been reported for the following molecule? N#Cc1c(O[C@@H]2CO[C@H]3[C@@H]2OC[C@H]3O)[nH]c2ccc(-c3c(F)cc(N4CC[C@@H](O)C4)cc3F)nc12
## Result 18 nM

## Task What value of EC150 (compound concentration showing 150% relative to the control (100%)) has been reported for the following molecule? Cc1ccc(Oc2[nH]c3cc(Cl)c(-c4ccc(N5CCOCC5)cc4)cc3c2C#N)cc1C(=O)O
## Result 76 nM

## Task What value of EC150 (compound concentration showing 150% relative to the control (100%)) has been reported for the following molecule? CS(=O)(=O)NC1CC=C(c2ccc(-c3nc4cc(O[C@@H]5CO[C@H]6[C@@H]5OC[C@H]6O)[nH]c4cc3Cl)cc2)CC1 (stereo partly shown)
## Result 0.76 nM

## Task What value of EC150 (compound concentration showing 150% relative to the control (100%)) has been reported for the following molecule? O[C@@H]1CO[C@H]2[C@@H]1OC[C@H]2Oc1cc2nc(-c3c(F)cc(N4CCOCC4)cc3F)c(F)cc2[nH]1
## Result 8.8 nM

## Task What value of EC150 (compound concentration showing 150% relative to the control (100%)) has been reported for the following molecule? N#Cc1cc2[nH]c(O[C@@H]3CO[C@H]4[C@@H]3OC[C@H]4O)c(C#N)c2cc1-c1ccc(N2CCOCC2)cc1
## Result 98 nM

## Task What value of EC150 (compound concentration showing 150% relative to the control (100%)) has been reported for the following molecule? N#Cc1c(O[C@@H]2CO[C@H]3[C@@H]2OC[C@H]3O)[nH]c2cc(Cl)c(-c3ccc(C4=CCC(C(=O)O)CC4)cc3)cc12 (stereo partly shown)
## Result 39 nM

## Task What value of EC150 (compound concentration showing 150% relative to the control (100%)) has been reported for the following molecule? N#Cc1c(O[C@@H]2CO[C@H]3[C@@H]2OC[C@H]3O)[nH]c2cc(Cl)c(-c3ccc(C4=CCN(C(=O)CO)CC4)cc3)cc12
## Result 20 nM

## Task What value of EC150 (compound concentration showing 150% relative to the control (100%)) has been reported for the following molecule? CC(C)(C(=O)O)[C@H]1CC[C@H](Oc2cc3nc(-c4ccc(N5CCOCC5)cc4)c(Cl)cc3[nH]2)CC1
## Result 120 nM

## Task What value of EC150 (compound concentration showing 150% relative to the control (100%)) has been reported for the following molecule? CC(=O)NC(C)(C)c1ccc(Oc2cc3nc(-c4c(F)cc(N5CCOCC5)cc4F)ccc3[nH]2)cc1
## Result 39 nM

## Task What value of EC150 (compound concentration showing 150% relative to the control (100%)) has been reported for the following molecule? O[C@@H]1CO[C@H]2[C@@H]1OC[C@H]2Oc1cc2nc(-c3ccc(-c4ccccc4)cc3)c(Cl)cc2[nH]1
## Result 4.1 nM

Just for reference, patent US9890119B2 is where these values come from.
